Test system: Cabbage Looper [Trichoplusia ni (Hubner)]
PROCEDURE TEXT: Cabbage looper insecticidal test
Format: in vivo
EXPERIMENTAL PARAMETERS: second-instar larvae, percent in solution; 3-5 days
Exercise: state measured LC50, CL for each of the compounds provided.
Give the value in % but do not write % after it.

input: Determine its reported LC50, CL: CC(C)C(=Nc1cccc(Cl)c1)OCc1ccc(F)c(Oc2ccc(F)cc2)c1
output: 0.0005

input: Determine its reported LC50, CL: CSc1ccc(Oc2cccc(COC(=Nc3ccc(F)c(Cl)c3)C(C)C)c2)cc1
output: 0.007

input: Determine its reported LC50, CL: Cc1c(COC(=Nc2ccc(F)cc2)C(C)C)cccc1-c1ccccc1
output: 0.007
